Molecular target: T1, Human CD3eg linker (human)
T1 construct: single-chain construct; also called recombinant human CD3
T1 chain: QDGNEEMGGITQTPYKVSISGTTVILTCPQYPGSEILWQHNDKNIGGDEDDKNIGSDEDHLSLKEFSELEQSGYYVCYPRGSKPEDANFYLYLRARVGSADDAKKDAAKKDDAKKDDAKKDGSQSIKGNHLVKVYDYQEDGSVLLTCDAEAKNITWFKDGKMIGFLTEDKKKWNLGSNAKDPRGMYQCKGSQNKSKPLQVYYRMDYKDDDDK
Test: SPR, vs unmutated H183/L072
quantity: fold change of affinity (fold)

>>> reportedvalue("dBBDu183H P61Y/dBBDu072L (antibody, name in Kabat numbering, V domains shown) VH: QVQLVESGGGLVQPGRSLRLSCAASGFTFSNAWMHWVRQAPGKGLEWVAQIKDKGNAYAAYYAYSVKGRFTISRDDSKNSIYLQMNSLKTEDTAVYYCHYVHYASASTVLPAFGVDAWGQGTTVTVSS VL: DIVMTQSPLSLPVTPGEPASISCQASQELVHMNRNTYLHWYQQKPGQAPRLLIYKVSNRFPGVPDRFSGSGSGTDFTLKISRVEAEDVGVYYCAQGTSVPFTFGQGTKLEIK")
1.9
>>> reportedvalue("dBBDu183H A100T/dBBDu072L (antibody, name in Kabat numbering, V domains shown) VH: QVQLVESGGGLVQPGRSLRLSCAASGFTFSNAWMHWVRQAPGKGLEWVAQIKDKGNAYAAYYAPSVKGRFTISRDDSKNSIYLQMNSLKTEDTAVYYCHYVHYASTSTVLPAFGVDAWGQGTTVTVSS VL: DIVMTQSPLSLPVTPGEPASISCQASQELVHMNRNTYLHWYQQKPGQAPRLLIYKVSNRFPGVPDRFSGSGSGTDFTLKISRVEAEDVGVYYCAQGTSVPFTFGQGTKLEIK")
0.9
>>> reportedvalue("dBBDu183H H93N/dBBDu072L (antibody, name in Kabat numbering, V domains shown) VH: QVQLVESGGGLVQPGRSLRLSCAASGFTFSNAWMHWVRQAPGKGLEWVAQIKDKGNAYAAYYAPSVKGRFTISRDDSKNSIYLQMNSLKTEDTAVYYCNYVHYASASTVLPAFGVDAWGQGTTVTVSS VL: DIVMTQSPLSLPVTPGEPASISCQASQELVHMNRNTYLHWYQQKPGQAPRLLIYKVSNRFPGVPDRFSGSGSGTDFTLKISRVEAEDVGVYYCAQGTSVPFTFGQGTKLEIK")
0
>>> reportedvalue("dBBDu183H D101G/dBBDu072L (antibody, name in Kabat numbering, V domains shown) VH: QVQLVESGGGLVQPGRSLRLSCAASGFTFSNAWMHWVRQAPGKGLEWVAQIKDKGNAYAAYYAPSVKGRFTISRDDSKNSIYLQMNSLKTEDTAVYYCHYVHYASASTVLPAFGVGAWGQGTTVTVSS VL: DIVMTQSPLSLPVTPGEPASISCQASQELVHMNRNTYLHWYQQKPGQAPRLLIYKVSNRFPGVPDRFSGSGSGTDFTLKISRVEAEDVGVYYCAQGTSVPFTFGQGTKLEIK")
0.4
>>> reportedvalue("dBBDu183H Y97Q/dBBDu072L (antibody, name in Kabat numbering, V domains shown) VH: QVQLVESGGGLVQPGRSLRLSCAASGFTFSNAWMHWVRQAPGKGLEWVAQIKDKGNAYAAYYAPSVKGRFTISRDDSKNSIYLQMNSLKTEDTAVYYCHYVHQASASTVLPAFGVDAWGQGTTVTVSS VL: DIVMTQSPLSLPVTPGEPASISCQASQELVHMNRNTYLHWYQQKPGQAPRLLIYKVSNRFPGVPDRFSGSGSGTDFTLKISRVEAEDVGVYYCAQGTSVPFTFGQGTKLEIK")
0
